Experimental target: hCB2 cannabinoid receptor (Homo sapiens, UniProt P34972)
Construct: purchased PerkinElmer (Belgium)
Sequence (P34972 whole entry): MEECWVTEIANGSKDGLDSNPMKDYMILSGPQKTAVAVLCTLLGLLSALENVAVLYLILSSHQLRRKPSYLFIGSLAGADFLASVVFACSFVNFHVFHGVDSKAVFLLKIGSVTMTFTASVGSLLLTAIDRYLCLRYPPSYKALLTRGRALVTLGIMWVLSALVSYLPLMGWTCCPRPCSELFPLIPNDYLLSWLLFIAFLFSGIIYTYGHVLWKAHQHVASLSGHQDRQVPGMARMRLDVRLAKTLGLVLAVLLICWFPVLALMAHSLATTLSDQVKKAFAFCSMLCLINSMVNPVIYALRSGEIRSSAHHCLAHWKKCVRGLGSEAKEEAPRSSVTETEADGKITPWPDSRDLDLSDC
Assay text: Competition binding assay, hCB2 membranes, [3H]-CP-55,940
Assay setup: binding affinity (Ki) at the CB2 receptor
Recorded endpoint: Ki

Ask | Supply Ki value. Item: `CCCCCn1cc(C(=O)NC23CC4CC(CC(C4)C2)C3)c(=O)cc1C`
Reply | < 500 nM

====

// reported melting point per item
Only the number, expressed in °C, is required.

Compound	melting point, °C
CCCCCn1cc(C(=O)NC2CCCCC2)c(=O)cc1-c1ccccc1	120
CCCCCn1cc(C(=O)NC23CC4CC(C)(CC(C)(C4)C2)C3)c(=O)cc1-c1ccccc1	133
CCCCCn1cc(C(=O)NC2CCCCC2)c(=O)cc1-c1ccc(Cl)cc1	157
CCCCn1cc(C(=O)NC23CC4CC(CC(C4)C2)C3)c(=O)cc1-c1ccccc1	146
CCCCCn1cc(C(=O)NC(C)C23CC4CC(CC(C4)C2)C3)c(=O)cc1-c1ccccc1 (centres unmarked)	169
CCCCCn1cc(C(=O)N[C@H]2CCCc3ccccc32)c(=O)cc1-c1ccccc1	139
CCCCCCn1cc(C(=O)NC23CC4CC(CC(C4)C2)C3)c(=O)cc1-c1ccccc1	167

// next entry
Ask | Complete the entry with melting point for `CCCCCn1cc(C(=O)NN2CCCCC2)c(=O)cc1-c1ccccc1`
Reply | 122
